biological target: Human Serum Albumin (HSA) site I (Homo sapiens); experiment: 1,8-ANS site-specific probe displacement (fluorescence) from HSA site I
Sequence (P02768 25-609): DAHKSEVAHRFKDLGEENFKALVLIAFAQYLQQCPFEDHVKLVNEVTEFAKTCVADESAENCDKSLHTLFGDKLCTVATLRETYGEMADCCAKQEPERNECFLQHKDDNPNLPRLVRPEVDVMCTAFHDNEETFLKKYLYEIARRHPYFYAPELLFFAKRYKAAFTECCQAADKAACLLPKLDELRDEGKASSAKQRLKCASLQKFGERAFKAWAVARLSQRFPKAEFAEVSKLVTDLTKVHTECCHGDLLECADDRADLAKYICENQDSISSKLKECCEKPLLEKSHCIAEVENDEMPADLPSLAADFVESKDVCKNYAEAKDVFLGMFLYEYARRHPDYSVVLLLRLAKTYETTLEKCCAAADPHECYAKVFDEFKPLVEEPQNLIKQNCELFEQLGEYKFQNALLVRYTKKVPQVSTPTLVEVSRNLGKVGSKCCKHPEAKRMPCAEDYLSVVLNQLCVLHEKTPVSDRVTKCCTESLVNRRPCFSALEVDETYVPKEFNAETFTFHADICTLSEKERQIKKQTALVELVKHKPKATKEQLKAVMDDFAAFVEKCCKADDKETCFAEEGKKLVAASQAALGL
Kindly apply the following: T if IC50 is less than 20 µM, F in every other case.

# example entries with known answers
[[record]]
compound = "O=c1c(O)c(-c2ccc(O)c(O)c2)oc2cc(O)cc(O)c12"
group = "F"

[[record]]
compound = "CC(C(=O)O)c1ccc2c(c1)[nH]c1ccc(Cl)cc12 (stereo not shown)"
group = "T"

[[record]]
compound = "CCC(Cc1c(I)cc(I)c(N)c1I)C(=O)O (stereo not shown) [Iodopanoate, iodopanoate]"
group = "T"

[[record]]
compound = "COc1cc(NS(=O)(=O)c2ccc(N)cc2)nc(OC)n1"
group = "F"

[[record]]
compound = "CC(C(=O)O)c1ccc(-c2ccccc2)c(F)c1 (stereo not shown)"
group = "F"

[[record]]
compound = "CN1C(C(=O)Nc2ccccn2)=C(O)c2sccc2S1(=O)=O"
group = "F"


Quick check: IC50 of CCC(Cc1c(I)cc(I)c(O)c1I)C(=O)O (stereo not shown) [Iophenoxate, iophenoxate] under 20 µM?
T

###

target: Mouse Serum Albumin (Mus musculus); construct: The above albumins were prepared using method IV of Cohn et al. (J. Am. Chem. Soc. 69: 1753-1761, 1947) and purified with 1× crystallization; purchased Sigma A-3559; experiment: ThermoFluor thermal shift assay with mouse serum albumin; format: binding; conditions: Example 4, Table 3
Sequence (P07724 25-608): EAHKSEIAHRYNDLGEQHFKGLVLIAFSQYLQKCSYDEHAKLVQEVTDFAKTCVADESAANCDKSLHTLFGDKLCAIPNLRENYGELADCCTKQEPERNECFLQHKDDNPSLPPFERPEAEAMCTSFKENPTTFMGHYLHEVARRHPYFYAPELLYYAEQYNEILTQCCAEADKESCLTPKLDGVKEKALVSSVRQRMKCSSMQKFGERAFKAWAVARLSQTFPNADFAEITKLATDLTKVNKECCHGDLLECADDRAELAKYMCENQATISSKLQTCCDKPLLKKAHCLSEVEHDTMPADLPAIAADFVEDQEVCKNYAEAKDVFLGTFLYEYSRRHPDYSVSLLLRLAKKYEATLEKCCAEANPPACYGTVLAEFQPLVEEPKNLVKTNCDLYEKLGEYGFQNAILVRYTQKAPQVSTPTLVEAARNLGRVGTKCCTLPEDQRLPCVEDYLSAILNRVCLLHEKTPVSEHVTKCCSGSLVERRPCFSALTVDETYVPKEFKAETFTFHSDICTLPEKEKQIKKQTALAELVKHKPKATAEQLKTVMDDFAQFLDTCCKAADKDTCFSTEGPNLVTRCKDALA
measuredEndpoint: Kd (µM)
# unit: µM | format: bare number

[[record]]
molecule = "COc1cc(NS(=O)(=O)c2ccc(N)cc2)nc(OC)n1"
targetofassay = "Mouse Serum Albumin (Mus musculus)"
unitsymbol = "µM"
observedresult = 69.5


Now consider a different molecule.
Which Kd value belongs to CCCNC(=O)NS(=O)(=O)c1ccc(Cl)cc1 [Chlorpropamide, chlorpropamide] ?
110

###

target: Bovine Serum Albumin (BSA) (Bos taurus, UniProt P02769); construct: The above albumins were prepared using method IV of Cohn et al. (J. Am. Chem. Soc. 69: 1753-1761, 1947) and purified with 1× crystallization; purchased Sigma A-7638; assay: ThermoFluor thermal shift assay with bovine serum albumin; type: binding; conditions: Example 4, Table 3
Sequence (P02769 25-607): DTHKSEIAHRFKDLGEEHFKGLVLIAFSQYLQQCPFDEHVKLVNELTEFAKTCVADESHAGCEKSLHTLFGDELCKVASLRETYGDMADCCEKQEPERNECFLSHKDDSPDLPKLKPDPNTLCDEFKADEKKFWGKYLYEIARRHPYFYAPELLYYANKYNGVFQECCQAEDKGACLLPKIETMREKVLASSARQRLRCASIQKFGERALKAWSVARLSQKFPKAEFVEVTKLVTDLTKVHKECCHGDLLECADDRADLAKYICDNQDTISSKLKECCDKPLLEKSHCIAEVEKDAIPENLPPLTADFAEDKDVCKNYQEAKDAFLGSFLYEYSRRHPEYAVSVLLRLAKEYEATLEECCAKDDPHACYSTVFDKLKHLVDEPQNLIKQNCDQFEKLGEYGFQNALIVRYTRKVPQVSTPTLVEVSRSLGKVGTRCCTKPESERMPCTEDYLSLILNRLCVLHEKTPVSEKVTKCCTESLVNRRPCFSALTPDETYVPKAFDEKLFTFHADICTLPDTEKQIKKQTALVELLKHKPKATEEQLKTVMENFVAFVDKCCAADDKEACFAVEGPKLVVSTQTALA
measuredEndpoint: Kd (µM)
The reply should contain only the number, in µM.

Example entries and their recorded answers appear below.
[[record]]
compound = "C=CC1=C(C)/C(=C/c2[nH]c(Cc3[nH]c(/C=C4\\NC(=O)C(C)=C4C=C)c(C)c3CCC(=O)O)c(CCC(=O)O)c2C)NC1=O"
targetofassay = "Bovine Serum Albumin (BSA) (Bos taurus, UniProt P02769)"
observedresult = 85.4

[[record]]
compound = "CC(C(=O)O)c1ccc2c(c1)[nH]c1ccc(Cl)cc12 (centres unmarked)"
targetofassay = "Bovine Serum Albumin (BSA) (Bos taurus, UniProt P02769)"
observedresult = 2.91

[[record]]
compound = "CCCNC(=O)NS(=O)(=O)c1ccc(Cl)cc1 [Chlorpropamide, chlorpropamide]"
targetofassay = "Bovine Serum Albumin (BSA) (Bos taurus, UniProt P02769)"
observedresult = 41.7


# Kd lookup, item CCC(Cc1c(I)cc(I)c(N)c1I)C(=O)O (centres unmarked) [Iodopanoate, iodopanoate]
1.3

Also CC(C(=O)O)c1ccc(-c2ccccc2)c(F)c1 (centres unmarked) ?
1.88

Another compound: CCC(Cc1c(I)cc(I)c(O)c1I)C(=O)O (centres unmarked) [Iophenoxate, iophenoxate]
0.066
